B1: ZNF449 (parent)
chain: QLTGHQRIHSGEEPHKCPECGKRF

variants of: B1; test: protein stability index of a GFP-peptide fusion (GPS, HEK-293T) (PSI 1-6); higher = more stable; conditions: c terminus: a fixed tail appended;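 further: lentivirally expressed fusions sorted by FACS into six bins by GFP to DsRed ratio, PSI derived from sequencing read proportions per bin multiplied by bin number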
Recorded measurements of protein stability index, one per entry

Before answering, review these 6 worked examples.
>  <mutation notation>
P14Y

>  <protein stability index>
4.65

$$$$
>  <mutation notation>
H5N

>  <protein stability index>
3.73

$$$$
>  <mutation notation>
R23H

>  <protein stability index>
4.23

$$$$
>  <mutation notation>
G11C

>  <protein stability index>
4.88

$$$$
>  <mutation notation>
E12Q

>  <protein stability index>
3.29

$$$$
>  <mutation notation>
G11N

>  <protein stability index>
3.86

$$$$

Task item: Item "T3D" has what recorded protein stability index?
Reply: 4.99

Task item: Item "P18V" has what recorded protein stability index?
Reply: 4.55

Task item: Item "L2E" has what recorded protein stability index?
Reply: 4.71

Task item: Item "H5V" has what recorded protein stability index?
Reply: 3.56

Task item: Item "T3Q" has what recorded protein stability index?
Reply: 3.66
